Biological target: C1b domain of human PKCδ (Homo sapiens, UniProt Q05655)
Construct: Genes encoding C1b domains of human PKCα, δ, ε, θ, and PKD1 (PKCμ) were synthesized; made in house; host or cells: E. coli BL21(DE3)
Sequence (Q05655 230-280 limits assumed): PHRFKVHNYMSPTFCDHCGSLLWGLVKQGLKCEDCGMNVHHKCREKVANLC
Assay: Competitive 3H-PDBu binding to C1b domain of PKCδ
Conditions: Ki PKCδ, 3H-PDBu competition
Procedure: Compounds described in this disclosure were tested for binding affinity to C1b domain of PKC isoforms. […] The plate was incubated at 37° C. on a shaker at 300 rpm for 10 minutes and then put on ice for 20 minutes. […] The bottom of the filter plate was sealed and 50 μL of MicroScint-20 (PerkinElmer) cocktail was added to each well. ^3H-PDBu trapped in each well was counted using PerkinElmer MicroBeta2 Reader. […] Kd is the binding affinity of each protein preparation to ^3H-PDBu, determined experimentally.
measured-endpoint: Ki

Examples with answers:
Query block: Observed Ki on C1b domain of human PKCδ (Homo sapiens, UniProt Q05655) for CC1=C[C@H]2[C@@]3(O)[C@H](C)C[C@]4(OC(=O)[C@H](N)C(C)(C)c5ccc(C(F)(F)F)cc5)[C@H]([C@@H]3C=C(CO)C[C@]2(O)C1=O)C4(C)C [Compound K101-C134901] , please.
Result block: 1 to 30 nM

Query block: Observed Ki on C1b domain of human PKCδ (Homo sapiens, UniProt Q05655) for CC1=C[C@H]2[C@@]3(O)[C@H](C)C[C@]4(OC(=O)[C@H](N)CCCCCCc5ccc(C(F)F)cc5)[C@H]([C@@H]3C=C(CO)C[C@]2(O)C1=O)C4(C)C [Compound K101-C137001] , please.
Result block: 1 to 30 nM

Query block: Observed Ki on C1b domain of human PKCδ (Homo sapiens, UniProt Q05655) for CC1=C[C@H]2[C@@]3(O)[C@H](C)C[C@]4(OC(=O)C5CC6(C5)CN(C(=O)OC(C)(C)C)C6)[C@H]([C@@H]3C=C(CO)C[C@]2(O)C1=O)C4(C)C [Compound K101-C1311] , please.
Result block: 1 to 30 nM

// batch mode: one Ki value per listed entry
1. CC1=C[C@H]2[C@@]3(O)[C@H](C)C[C@]4(OC(=O)[C@@H](N)CCCCCCc5ccc(C(F)F)cc5)[C@H]([C@@H]3C=C(CO)C[C@]2(O)C1=O)C4(C)C [Compound K101-C137002]
2. CC1=C[C@H]2[C@@]3(O)[C@H](C)C[C@]4(OC(=O)[C@H](N)CCCCCCc5ccc(C(F)(F)F)cc5)[C@H]([C@@H]3C=C(CO)C[C@]2(O)C1=O)C4(C)C [Compound K101-C135901]

Result block:
["1 to 30 nM", "30 to 60 nM"]

###

system: Panc2.13 (Pancreatic) cell line; assay: Proliferation of Panc2.13; format: cell-based; settings: Panc2.13; read-out: IC50 in μM Panc2.13 (Pancreatic)
measured-endpoint: IC50

Query block: Quick one: IC50 of CC1=C[C@H]2[C@@]3(O)[C@H](C)C[C@]4(OC(=O)[C@@H](N)Cc5ccccc5)[C@H]([C@@H]3C=C(CO)C[C@]2(O)C1=O)C4(C)C [Compound K101-C1303] ?
Result block: 1 to 2 µM

###

molecular target: C1b domain of human PKCε (Homo sapiens); construct: Genes encoding C1b domains of human PKCα, δ, ε, θ, and PKD1 (PKCμ) were synthesized; made in house; host or cells: E. coli BL21(DE3); experiment: Competitive 3H-PDBu binding to C1b domain of PKCε
Sequence (Q02156 242-292 limits assumed): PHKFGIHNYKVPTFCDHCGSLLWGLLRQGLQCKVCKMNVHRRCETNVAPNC
pKi: −log10 of the molar value.
measured-endpoint: pKi

Examples with answers:
Query block: Quick one: pKi of CC1=C[C@H]2[C@@]3(O)[C@H](C)C[C@]4(OC(=O)C5CC6(CNC6)C5)[C@H]([C@@H]3C=C(CO)C[C@]2(O)C1=O)C4(C)C [Compound K101-C1305] ?
Result block: 5.70 to 6.00

Query block: Quick one: pKi of CC1=C[C@H]2[C@@]3(O)[C@H](C)C[C@]4(O)[C@H]([C@@H]3C=C(CO)C[C@]2(O)C1=O)C4(C)C [Compound K101-C13OH] ?
Result block: 5.40 to 5.70

Query block: Quick one: pKi of CC1=C[C@H]2[C@@]3(O)[C@H](C)C[C@]4(OC(=O)[C@@H](N)CCCCCCc5ccccc5)[C@H]([C@@H]3C=C(CO)C[C@]2(O)C1=O)C4(C)C [Compound K101-C134802] ?
Result block: 7.52 to 9.00

Query block: Quick one: pKi of CC/C=C\C/C=C\C/C=C\C/C=C\C/C=C\C/C=C\CCC(=O)O[C@@]12C[C@@H](C)[C@@]3(O)[C@@H](C=C(CO)C[C@]4(O)C(=O)C(C)=C[C@@H]34)[C@@H]1C2(C)C [Compound K101-C1333] ?
Result block: 7.52 to 9.00

Query block: Quick one: pKi of CC1=C[C@H]2[C@@]3(O)[C@H](C)C[C@]4(OC(=O)/C=C/c5ccc(C(F)(F)F)cc5)[C@H]([C@@H]3C=C(CO)C[C@]2(O)C1=O)C4(C)C [Compound K101-C1313] ?
Result block: 7.52 to 9.00

// batch mode: one pKi value per listed entry
1. CC1=C[C@H]2[C@@]3(O)[C@H](C)C[C@]4(OC(=O)[C@H](N)C(C)(C)c5ccc(C(F)(F)F)cc5)[C@H]([C@@H]3C=C(CO)C[C@]2(O)C1=O)C4(C)C [Compound K101-C134901]
2. CC1=C[C@H]2[C@@]3(O)[C@H](C)C[C@]4(OC(=O)[C@@H](N)C5Cc6ccccc6C5)[C@H]([C@@H]3C=C(CO)C[C@]2(O)C1=O)C4(C)C [Compound K101-C1329]
3. CC1=C[C@H]2[C@@]3(O)[C@H](C)C[C@]4(OC(=O)[C@@H](N)[C@]56C[C@H]7C[C@H](C[C@H](C7)C5)C6)[C@H]([C@@H]3C=C(CO)C[C@]2(O)C1=O)C4(C)C [Compound K101-C1347]
4. CC1=C[C@H]2[C@@]3(O)[C@H](C)C[C@]4(OC(=O)[C@H](N)CCCCCCc5ccc(C(F)F)cc5)[C@H]([C@@H]3C=C(CO)C[C@]2(O)C1=O)C4(C)C [Compound K101-C137001]
5. CC1=C[C@H]2[C@@]3(O)[C@H](C)C[C@]4(OC(=O)[C@@H](N)CCCc5ccccc5)[C@H]([C@@H]3C=C(CO)C[C@]2(O)C1=O)C4(C)C [Compound K101-C1319]
6. CC1=C[C@H]2[C@@]3(O)[C@H](C)C[C@]4(OC(=O)CCc5ccc(C(F)(F)F)cc5)[C@H]([C@@H]3C=C(CO)C[C@]2(O)C1=O)C4(C)C [Compound K101-C1302]

Result block:
1. 7.52 to 9.00
2. 7.52 to 9.00
3. 8.00 to 8.30
4. 7.22 to 7.52
5. 7.22 to 7.52
6. > 8.30

###

target: C1b domain of human PKCδ (Homo sapiens); construct: Genes encoding C1b domains of human PKCα, δ, ε, θ, and PKD1 (PKCμ) were synthesized; made in house; host or cells: E. coli BL21(DE3); test: Competitive 3H-PDBu binding to C1b domain of PKCδ; details: Ki PKCδ, 3H-PDBu competition
measured-endpoint: Ki

Examples with answers:
Query block: Quick one: Ki of CC1=C[C@H]2[C@@]3(O)[C@H](C)C[C@]4(OC(=O)[C@@H](N)CCc5ccccc5)[C@H]([C@@H]3C=C(CO)C[C@]2(O)C1=O)C4(C)C [Compound K101-C1318] ?
Result block: 5 to 10 nM

Query block: Quick one: Ki of `CCCC[C@H](N)C(=O)O[C@@]12C[C@@H](C)[C@@]3(O)[C@@H](C=C(CO)C[C@]4(O)C(=O)C(C)=C[C@@H]34)[C@@H]1C2(C)C` ?
Result block: 1 to 30 nM

Query block: Quick one: Ki of `CSCC[C@H](N)C(=O)O[C@@]12C[C@@H](C)[C@@]3(O)[C@@H](C=C(CO)C[C@]4(O)C(=O)C(C)=C[C@@H]34)[C@@H]1C2(C)C` ?
Result block: 100 to 200 nM

Query block: Quick one: Ki of `CC1=C[C@H]2[C@@]3(O)[C@H](C)C[C@]4(OC(=O)[C@H](N)CC5CCCCC5)[C@H]([C@@H]3C=C(CO)C[C@]2(O)C1=O)C4(C)C` ?
Result block: 1 to 30 nM

Query block: Quick one: Ki of `CC1=C[C@H]2[C@@]3(O)[C@H](C)C[C@]4(OC(=O)[C@@H](N)CCCCCCc5ccccc5)[C@H]([C@@H]3C=C(CO)C[C@]2(O)C1=O)C4(C)C` ?
Result block: < 5 nM

Query block: Quick one: Ki of `CC1=C[C@H]2[C@@]3(O)[C@H](C)C[C@]4(OC(=O)[C@@H](N)CCCc5ccccc5)[C@H]([C@@H]3C=C(CO)C[C@]2(O)C1=O)C4(C)C` ?
Result block: < 5 nM

Query block: Quick one: Ki of `CC1=C[C@H]2[C@@]3(O)[C@H](C)C[C@]4(OC(=O)CCc5c[nH]c6ncccc56)[C@H]([C@@H]3C=C(CO)C[C@]2(O)C1=O)C4(C)C` ?
Result block: 30 to 60 nM

Query block: Quick one: Ki of `CC/C=C\C/C=C\C/C=C\C/C=C\C/C=C\C/C=C\CCC(=O)O[C@@]12C[C@@H](C)[C@@]3(O)[C@@H](C=C(CO)C[C@]4(O)C(=O)C(C)=C[C@@H]34)[C@@H]1C2(C)C` ?
Result block: < 5 nM

// batch mode: one Ki value per listed entry
1. CN[C@@H](CC1CCCCC1)C(=O)O[C@@]12C[C@@H](C)[C@@]3(O)[C@@H](C=C(CO)C[C@]4(O)C(=O)C(C)=C[C@@H]34)[C@@H]1C2(C)C
2. CC1=C[C@H]2[C@@]3(O)[C@H](C)C[C@]4(OC(=O)[C@@H](N)Cc5c[nH]c6ccccc56)[C@H]([C@@H]3C=C(CO)C[C@]2(O)C1=O)C4(C)C

Result block:
1: 1 to 30 nM; 2: 1 to 30 nM

The reported measurements were obtained from patent US20220411362A1.
